STUDY_TARGET: P2Y12 receptor (Homo sapiens, UniProt Q9H244)
Sequence (Q9H244 whole entry): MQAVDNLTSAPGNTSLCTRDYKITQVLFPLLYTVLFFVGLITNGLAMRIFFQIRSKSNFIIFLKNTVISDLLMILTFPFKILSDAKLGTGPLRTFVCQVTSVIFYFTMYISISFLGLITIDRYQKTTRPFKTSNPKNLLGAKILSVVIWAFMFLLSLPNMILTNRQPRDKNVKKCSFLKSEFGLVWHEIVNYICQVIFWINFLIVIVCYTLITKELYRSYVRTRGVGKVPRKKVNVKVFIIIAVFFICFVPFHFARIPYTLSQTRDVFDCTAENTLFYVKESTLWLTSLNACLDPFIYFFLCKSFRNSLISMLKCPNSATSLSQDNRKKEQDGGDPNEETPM
ASSAY_NAME: [33P]2MeS-ADP binding to washed human platelet membranes (Assay 1)
Design: the P2Y12 receptor, which is found on the surface of platelets; tissue Interstate Blood bank, Memphis, Tenn; host or cells: washed human platelets from platelet rich plasma
RECORDED_CONDITIONS: washed human platelet membranes, competition with [33P]2MeS-ADP
pKi: −log10 of the molar value.

{"MOLECULE": "CCc1cc2c(N3CCN(C(=O)Cc4ccccc4)CC3)nc(SCc3ccco3)nc2s1 [Example 86]", "STUDY_TARGET": "P2Y12 receptor (Homo sapiens, UniProt Q9H244)", "pKi": 5.12}

* * *

IC50 values by entry
STUDY_TARGET: UniProt:Q9H244
ASSAY_NAME: [33P]-2MeS-ADP binding to recombinant human P2Y12 membranes (Assay 3)
Set-up: expressed in transfected cells; host or cells: HEK cells
RECORDED_CONDITIONS: HEK cell membranes expressing human P2Y12, competition with 33P 2MeS-ADP
Experimental: 3. Human P2Y12 Recombinant Cell Membrane Binding Assay with ^33P 2MeS-ADP. The ability of a test compound to bind to the P2Y12 receptor was evaluated in a recombinant cell membrane binding assay. […] Inhibition of binding of the labeled material was measured and correlated to the amount and potency of the test compound. […] The plates were incubated at room temperature for 1 hour. […] The filter plates were sealed, shaken for 30 minutes, and counted on a Top Count. […]
RECORDED_METRIC: IC50

{"COMPOUND": "CCc1cc2c(N3CCN(C(=O)CCOC)CC3)nc(SCC(=O)OC)nc2s1 [Example 58]", "RECORDED_MEASUREMENT": "5250 nM"}
{"COMPOUND": "CCc1cc2c(N3CCN(C(=O)c4ccc5c(c4)OCC5)CC3)nc(SCC(=O)OC)nc2s1 [Example 67]", "RECORDED_MEASUREMENT": "1230 nM"}
{"COMPOUND": "CCc1cc2c(N3CCN(C(=O)Cc4ccccc4)CC3)nc(SCCNC(C)=O)nc2s1 [Example 15]", "RECORDED_MEASUREMENT": "300 nM"}
{"COMPOUND": "CCc1cc2c(N3CCN(C(=O)c4ccc5cc[nH]c5c4)CC3)nc(SCC(=O)OC)nc2s1 [Example 63]", "RECORDED_MEASUREMENT": "1880 nM"}
{"COMPOUND": "CCc1cc2c(N3CCN(C(=O)c4cccc(N(C)C)c4)CC3)nc(SCC(=O)OC)nc2s1 [Example 74]", "RECORDED_MEASUREMENT": "5740 nM"}
{"COMPOUND": "CCc1cc2c(N3CCN(C(=O)Cc4ccccc4)CC3)nc(S(=O)(=O)CC(=O)OC)nc2s1 [Example 8]", "RECORDED_MEASUREMENT": "1200 nM"}
{"COMPOUND": "CCc1cc2c(N3CCN(C(=O)c4ccc(-c5csnn5)cc4)CC3)nc(SCC(=O)OC)nc2s1 [Example 66]", "RECORDED_MEASUREMENT": "450 nM"}
{"COMPOUND": "CCc1cc2c(N3CCN(C(=O)c4ccc5ccoc5c4)CC3)nc(SCC(=O)OC)nc2s1 [Example 65]", "RECORDED_MEASUREMENT": "620 nM"}
{"COMPOUND": "CCc1cc2c(N3CCN(C(=O)c4ccc5ccccc5c4)CC3)nc(SCC(=O)OC)nc2s1 [Example 55]", "RECORDED_MEASUREMENT": "1470 nM"}
{"COMPOUND": "CCc1cc2c(N3CCN(C(=O)c4ccc(C(N)=O)cc4)CC3)nc(SCC(=O)OC)nc2s1 [Example 79]", "RECORDED_MEASUREMENT": "8700 nM"}
{"COMPOUND": "CCOc1ccc(C(=O)N2CCN(c3nc(SCC(=O)OC)nc4sc(CC)cc34)CC2)cc1 [Example 57]", "RECORDED_MEASUREMENT": "1050 nM"}
{"COMPOUND": "CCc1cc2c(N3CCN(C(=O)CCCC(=O)OC)CC3)nc(SCC(=O)OC)nc2s1 [Example 41]", "RECORDED_MEASUREMENT": "2570 nM"}
{"COMPOUND": "CCc1cc2c(N3CCN(C(=O)Cc4ccccc4)CC3)nc(SCCc3ccncc3)nc2s1 [Example 26]", "RECORDED_MEASUREMENT": "800 nM"}
{"COMPOUND": "CCc1cc2c(N3CCN(C(=O)c4cccc(OC)c4)CC3)nc(SCC(=O)OC)nc2s1 [Example 75]", "RECORDED_MEASUREMENT": "3500 nM"}
{"COMPOUND": "CCc1cc2c(N3CCN(C(=O)c4csc(-c5cccnc5)n4)CC3)nc(SCC(=O)OC)nc2s1 [Example 81]", "RECORDED_MEASUREMENT": "1720 nM"}
{"COMPOUND": "CCc1cc2c(N3CCN(C(=O)c4cccc(C(F)(F)F)c4)CC3)nc(SCC(=O)OC)nc2s1 [Example 60]", "RECORDED_MEASUREMENT": "4870 nM"}

Data origin: patent US20080176857A1
